Tested on: Staphylococcus aureus
assay.overview: Antibacterial activity against coagulase-positive Staphylococcus aureus at 30 ug/ml after 24 hrs by agar well diffusion method
Assay type: functional
protocol.conditions: read-out: DIZ
Peptide text beside a SMILES is read from it. * marks the point of attachment. Piperazinyl(4-(2,3-Cl2Ph)) = Clc1cccc(N2CCN(*)CC2)c1Cl; Thiocarbamoyl(N-4-ClPh) = S=C(Nc1ccc(Cl)cc1)*; X1 = Fc1ccc2c(C3CCN(*)CC3)noc2c1
readout.kind: zone of inhibition at 30 µg/mL
State the value, then name its unit.

Please give the measured zone of inhibition at 30 µg/mL for this compound: CC[C@H](C)[C@H](NC(=O)CNC(=O)CNC(=S)Nc1ccc(Cl)cc1)C(=O)N1CCC[C@H]1C(=O)N1CCN(c2cccc(Cl)c2Cl)CC1 ({Thiocarbamoyl(N-4-ClPh)}-GGIP-{Piperazinyl(4-(2,3-Cl2Ph))}) 22 mm

Next:
Please give the measured zone of inhibition at 30 µg/mL for this compound: CC(C)[C@H](NC(=O)CNC(=S)Nc1ccc(Cl)cc1)C(=O)NCC(=O)N[C@H](C(=O)N1CCC[C@H]1C(=O)N1CCC(c2noc3cc(F)ccc23)CC1)C(C)C ({Thiocarbamoyl(N-4-ClPh)}-GVGVP-X1) 28 mm

====

Test system: Xanthomonas oryzae
assay.overview: Antibacterial activity against Xanthomonas oryzae at 30 ug/ml after 24 hrs by agar well diffusion method
Type: functional
protocol.conditions: read-out: DIZ
Numbered stars: 1 amine (or outer) side, 2 acyl side, 3 side chain; on linkers, the order of the positions; unused ones are H or OH. Peptide text beside a SMILES is read from it. * marks the point of attachment. Piperazinyl(4-(2,3-Cl2Ph)) = Clc1cccc(N2CCN(*)CC2)c1Cl; Thiocarbamoyl(N-4-ClPh) = S=C(Nc1ccc(Cl)cc1)*; Thiocarbamoyl(4-MeOPh) = COc1ccc(NC(=S)*)cc1; X1 = Fc1ccc2c(C3CCN(*)CC3)noc2c1; NH(2-F-phenyl) = Fc1ccccc1N*; CO = O=C([*:1])[*:2]
Outcome: Fulfilled for zone of inhibition at 30 µg/mL of at least 30 mm; Not fulfilled for anything lower.

// known answers, use as guide
Kindly determine if zone of inhibition at 30 µg/mL recorded for COc1ccc(NC(=S)NCC(=O)N[C@@H](Cc2ccccc2)C(=O)NCC(=O)N[C@@H](Cc2ccccc2)C(=O)N2CCC[C@H]2C(=O)N2CCC(c3noc4cc(F)ccc34)CC2)cc1 ({Thiocarbamoyl(4-MeOPh)}-GFGFP-X1) is above or exactly 30 mm. Fulfilled

Kindly determine if zone of inhibition at 30 µg/mL recorded for O=C(CNC(=S)Nc1ccc(Cl)cc1)NCC(=O)N[C@@H](Cc1ccccc1)C(=O)N1CCC[C@H]1C(=O)N1CCN(c2cccc(Cl)c2Cl)CC1 ({Thiocarbamoyl(N-4-ClPh)}-GGFP-{Piperazinyl(4-(2,3-Cl2Ph))}) is above or exactly 30 mm. Not fulfilled

Kindly determine if zone of inhibition at 30 µg/mL recorded for COc1ccc(NC(=S)NCC(=O)NCC(=O)N[C@@H](Cc2ccccc2)C(=O)N2CCC[C@H]2C(=O)N2CCC(c3noc4cc(F)ccc34)CC2)cc1 ({Thiocarbamoyl(4-MeOPh)}-GGFP-X1) is above or exactly 30 mm. Not fulfilled

Kindly determine if zone of inhibition at 30 µg/mL recorded for CC(C)[C@H](NC(=O)CNC(=S)Nc1ccc(Cl)cc1)C(=O)NCC(=O)N[C@H](C(=O)N1CCC[C@H]1C(=O)N1CCC(c2noc3cc(F)ccc23)CC1)C(C)C ({Thiocarbamoyl(N-4-ClPh)}-GVGVP-X1) is above or exactly 30 mm. Fulfilled

Turning now to a further record.
Kindly determine if zone of inhibition at 30 µg/mL recorded for CC(C)[C@H](NC(=O)CNC(=O)Nc1ccccc1F)C(=O)NCC(=O)N[C@H](C(=O)N1CCC[C@H]1C(=O)N1CCC(c2noc3cc(F)ccc23)CC1)C(C)C ({NH(2-F-phenyl)-CO}-GVGVP-X1) is above or exactly 30 mm. Fulfilled
